Origin of values: ChEMBL document CHEMBL1139552

Assay system Tissue-type plasminogen activator (Homo sapiens); read-out recorded as pKi.
// pKi is dimensionless: -log10 of concentration (M)

The examples below pair each entry with its known result.
N=C(N)c1ccc2cc(C3CC3c3ccc4c(c3)C(c3ccccc3)=NCC4)ccc2c1 (stereo not given) : 5.15
CC(C)C1c2cc(C3CC3c3ccc4cc(C(=N)N)ccc4c3)ccc2CCN1C (stereo not given) : 5.21
CC(C)Oc1cccc(C2CC2c2ccc3cc(C(=N)N)ccc3c2)c1 (stereo not given) : 4.66

Task item: Using the record for N=C(N)c1ccc2cc(C3CC3c3ccc4c(c3)C(C3CCCCC3)=NCC4)ccc2c1 (stereo not given) , state its measured pKi.
Reply: 5.40
